Every entry's value here was drawn from patent US8673981B2.

Known Average added multiplier of body weight of a selection of molecules
test system: obese rat model; experiment: Weight-reducing pharmacodynamics study in the obese animal model (nutrient feed, 30 days); format: in vivo, Sprague Dawley rats; conditions: large dosage 1.2 mg/kg once a day for 30 days; (final - initial)/initial average body weight

[
  {
    "Molecule": "CC[C@@H](C)[C@@H](N)C(=O)N[C@@H](CC(C)C)C1(c2ccc(Cl)cc2)CCC1.Cl",
    "Average added multiplier of body weight": 3.0
  },
  {
    "Molecule": "CCC(C)C(N)C(=O)NC(CC(C)C)C1(c2ccc(Cl)cc2)CCC1.Cl (racemic)",
    "Average added multiplier of body weight": 3.2
  },
  {
    "Molecule": "CC[C@@H](C)[C@@H](N)C(=O)N[C@H](CC(C)C)C1(c2ccc(Cl)cc2)CCC1.Cl",
    "Average added multiplier of body weight": 2.8
  },
  {
    "Molecule": "CC(C)CC(N(C)C)C1(c2ccc(Cl)cc2)CCC1.Cl.O (stereo not drawn) [Sibutramine, reference compound]",
    "Average added multiplier of body weight": 2.9
  },
  {
    "Molecule": "CC[C@H](C)[C@H](N)C(=O)N[C@H](CC(C)C)C1(c2ccc(Cl)cc2)CCC1.Cl",
    "Average added multiplier of body weight": 2.6
  },
  {
    "Molecule": "CC[C@H](C)[C@H](N)C(=O)N[C@@H](CC(C)C)C1(c2ccc(Cl)cc2)CCC1.Cl",
    "Average added multiplier of body weight": 3.0
  }
]

* * *

system: obese rat model; assay: Weight-reducing pharmacodynamics study in the obese animal model (nutrient feed, 30 days); assay type: in vivo, Sprague Dawley rats; conditions: large dosage 1.2 mg/kg once a day for 30 days; intraperitoneal and perirenal fat

[
  {
    "Molecule": "CC(C)CC(N(C)C)C1(c2ccc(Cl)cc2)CCC1.Cl.O (stereo not drawn) [Sibutramine, reference compound]",
    "Readout units": "g",
    "Average fat weight": 1.9
  },
  {
    "Molecule": "CC[C@@H](C)[C@@H](N)C(=O)N[C@@H](CC(C)C)C1(c2ccc(Cl)cc2)CCC1.Cl",
    "Readout units": "g",
    "Average fat weight": 1.9
  },
  {
    "Molecule": "CC[C@@H](C)[C@@H](N)C(=O)N[C@H](CC(C)C)C1(c2ccc(Cl)cc2)CCC1.Cl",
    "Readout units": "g",
    "Average fat weight": 1.8
  },
  {
    "Molecule": "CC[C@H](C)[C@H](N)C(=O)N[C@H](CC(C)C)C1(c2ccc(Cl)cc2)CCC1.Cl",
    "Readout units": "g",
    "Average fat weight": 1.4
  },
  {
    "Molecule": "CC[C@H](C)[C@H](N)C(=O)N[C@@H](CC(C)C)C1(c2ccc(Cl)cc2)CCC1.Cl",
    "Readout units": "g",
    "Average fat weight": 1.7
  },
  {
    "Molecule": "CCC(C)C(N)C(=O)NC(CC(C)C)C1(c2ccc(Cl)cc2)CCC1.Cl (racemic)",
    "Readout units": "g",
    "Average fat weight": 2.0
  }
]

* * *

test system: obese rat model; experiment: Weight-reducing pharmacodynamics study in the obese animal model (nutrient feed, 30 days); type: in vivo, Sprague Dawley rats; settings: small dosage 0.3 mg/kg once a day for 30 days; (final - initial)/initial average body weight
Known Average added multiplier of body weight of a selection of compounds

[
  {
    "Compound": "CC[C@H](C)[C@H](N)C(=O)N[C@H](CC(C)C)C1(c2ccc(Cl)cc2)CCC1.Cl",
    "Average added multiplier of body weight": 2.8
  },
  {
    "Compound": "CC[C@@H](C)[C@@H](N)C(=O)N[C@H](CC(C)C)C1(c2ccc(Cl)cc2)CCC1.Cl",
    "Average added multiplier of body weight": 3.2
  },
  {
    "Compound": "CC[C@H](C)[C@H](N)C(=O)N[C@@H](CC(C)C)C1(c2ccc(Cl)cc2)CCC1.Cl",
    "Average added multiplier of body weight": 3.4
  },
  {
    "Compound": "CCC(C)C(N)C(=O)NC(CC(C)C)C1(c2ccc(Cl)cc2)CCC1.Cl (racemic)",
    "Average added multiplier of body weight": 3.3
  },
  {
    "Compound": "CC(C)CC(N(C)C)C1(c2ccc(Cl)cc2)CCC1.Cl.O (stereo not drawn) [Sibutramine, reference compound]",
    "Average added multiplier of body weight": 3.4
  },
  {
    "Compound": "CC[C@@H](C)[C@@H](N)C(=O)N[C@@H](CC(C)C)C1(c2ccc(Cl)cc2)CCC1.Cl",
    "Average added multiplier of body weight": 3.2
  }
]

* * *

Known Final average body weight of a selection of compounds
tested on: obese rat model; test: Weight-reducing pharmacodynamics study in the obese animal model (nutrient feed, 30 days); type: in vivo, Sprague Dawley rats; details: large dosage 1.2 mg/kg once a day for 30 days; rats on nutrient feed

[
  {
    "Compound": "CC[C@H](C)[C@H](N)C(=O)N[C@@H](CC(C)C)C1(c2ccc(Cl)cc2)CCC1.Cl",
    "Final average body weight (g)": 175.2
  },
  {
    "Compound": "CC(C)CC(N(C)C)C1(c2ccc(Cl)cc2)CCC1.Cl.O (stereo not drawn) [Sibutramine, reference compound]",
    "Final average body weight (g)": 165.7
  },
  {
    "Compound": "CC[C@@H](C)[C@@H](N)C(=O)N[C@H](CC(C)C)C1(c2ccc(Cl)cc2)CCC1.Cl",
    "Final average body weight (g)": 162.4
  },
  {
    "Compound": "CC[C@H](C)[C@H](N)C(=O)N[C@H](CC(C)C)C1(c2ccc(Cl)cc2)CCC1.Cl",
    "Final average body weight (g)": 156.1
  },
  {
    "Compound": "CCC(C)C(N)C(=O)NC(CC(C)C)C1(c2ccc(Cl)cc2)CCC1.Cl (racemic)",
    "Final average body weight (g)": 176.2
  },
  {
    "Compound": "CC[C@@H](C)[C@@H](N)C(=O)N[C@@H](CC(C)C)C1(c2ccc(Cl)cc2)CCC1.Cl",
    "Final average body weight (g)": 173.9
  }
]

* * *

system: obese rat model; experiment: Weight-reducing pharmacodynamics study in the obese animal model (nutrient feed, 30 days); assay type: in vivo, Sprague Dawley rats; design: unit not given here; settings: small dosage 0.3 mg/kg once a day for 30 days; average fat weight/final average body weight
Known Average fat weight coefficient of a selection of molecules

[
  {
    "Molecule": "CC[C@@H](C)[C@@H](N)C(=O)N[C@H](CC(C)C)C1(c2ccc(Cl)cc2)CCC1.Cl",
    "Average fat weight coefficient": 1.2
  },
  {
    "Molecule": "CC[C@H](C)[C@H](N)C(=O)N[C@@H](CC(C)C)C1(c2ccc(Cl)cc2)CCC1.Cl",
    "Average fat weight coefficient": 1.1
  },
  {
    "Molecule": "CCC(C)C(N)C(=O)NC(CC(C)C)C1(c2ccc(Cl)cc2)CCC1.Cl (racemic)",
    "Average fat weight coefficient": 1.2
  },
  {
    "Molecule": "CC(C)CC(N(C)C)C1(c2ccc(Cl)cc2)CCC1.Cl.O (stereo not drawn) [Sibutramine, reference compound]",
    "Average fat weight coefficient": 1.0
  },
  {
    "Molecule": "CC[C@@H](C)[C@@H](N)C(=O)N[C@@H](CC(C)C)C1(c2ccc(Cl)cc2)CCC1.Cl",
    "Average fat weight coefficient": 1.2
  },
  {
    "Molecule": "CC[C@H](C)[C@H](N)C(=O)N[C@H](CC(C)C)C1(c2ccc(Cl)cc2)CCC1.Cl",
    "Average fat weight coefficient": 0.9
  }
]
